# Tested on: Zymoseptoria tritici
# measurement.description: Growth of the primary hypha on PG solid medium
# Assay type: cell-based
# cond: 48 h, isolate IPO-323, 48 hours, read-out: EC50
observed.property: EC50

**Q:** Need EC50, item O=C(O)CCCc1ccccc1
**A:** 657 µM

###

# System: Magnaporthe oryzae
# measurement.description: microbe, parasite or virus in culture
# Format: cell-based
# cond: Pyricularia oryzae, 336 h
observed.property: EC50 (µM)
Numeric answer only, unit µM assumed.

**Q:** Need EC50, item O=C(O)CCCc1ccccc1
**A:** 1330

###

# System: Alternaria brassicicola
# measurement.description: Radial growth of the mycelium
# Type: cell-based
# cond: 240 h, strain 1, time 10 days
observed.property: EC50 (µM)
Numeric answer only, unit µM assumed.

**Q:** Need EC50, item O=C(O)CCCc1ccccc1 [4-PBA, 4-Phenylbutyric acid]
**A:** 260
